Source of measurements: ChEMBL document CHEMBL2413052

assay.info: Lipophilicity, log P of the compound
Format: physicochemical
condition.parameters: octanol/water
readout.name: logP

Challenge: I'd like to know its logP. The molecule in question is C=CCc1cccc(/C=N/NC(=O)CN2CCN(Cc3ccccc3)CC2)c1O
Response given: 3.43

* * *

assay.info: Distribution co-efficient, log D of the compound at pH 7.4
Format: physicochemical
condition.parameters: buffer
readout.name: logD
Just the number, please.

mol: Cc1ncc(CO)c(/C=N/NC(=O)CN2CCN(Cc3ccccc3)CC2)c1O
readout.name: logD
experimental.result: 1.27

Challenge: I'd like to know its logD. The molecule in question is O=C(CN1CCN(Cc2ccccc2)CC1)NNC(=O)CN(Cc1ccccn1)Cc1ccccn1
Response given: 1.4

* * *

Tested on: PC-12
assay.info: Induction of apoptosis in rat PC12 cells after 24 hrs by trypan blue exclusion assay
Assay type: functional, cell-based

mol: c1ccc(CN(CCN(Cc2ccccn2)Cc2ccccn2)Cc2ccccn2)nc1
Activity: Dose-dependent effect

mol: Cc1ncc(CO)c(/C=N/NC(=O)CN2CCN(Cc3ccccc3)CC2)c1O
Activity: Dose-dependent effect

mol: C=CCc1cccc(/C=N/NC(=O)CN2CCN(Cc3ccccc3)CC2)c1O
Activity: Dose-dependent effect

mol: O=C(CN1CCN(Cc2ccccc2)CC1)NNC(=O)CN(Cc1ccccn1)Cc1ccccn1
Activity: Dose-dependent effect

* * *

assay.info: Metal chelating activity of the compound assessed as zinc affinity by UV spectroscopy
Assay type: functional
Listing: Kd of selected compounds
Respond with the bare value in pM.

Record excerpt, results attached:
compound: O=C(CN1CCN(Cc2ccccc2)CC1)NNC(=O)CN(Cc1ccccn1)Cc1ccccn1
uom: pM
experimental.result: 1000
--
compound: C=CCc1cccc(/C=N/NC(=O)CN2CCN(Cc3ccccc3)CC2)c1O [PAC-1]
uom: pM
experimental.result: 42000
--
compound: Cc1ncc(CO)c(/C=N/NC(=O)CN2CCN(Cc3ccccc3)CC2)c1O
uom: pM
experimental.result: 0.2

Challenge: I'd like to know its Kd. The compound in question is c1ccc(CN(CCN(Cc2ccccn2)Cc2ccccn2)Cc2ccccn2)nc1
Response given: 0.00026
